Tested on: PC-3 cells
assay_procedure: Growth inhibition of prostate carcinoma cells (MTS)
Assay type: cell-based, human
test_parameters: read-out: GI50 PC3 (prostate) 48 h; 48 h
reported_property: GI50 (µM)
Entry rule: numbers only, all in µM.

compound | measured_on | GI50 [µM]
COc1cc(/C=N\OC/C=C/C=C(\C)CCC(O)c2cccs2)cc(OC)c1OC (stereo not shown) | PC-3 cells | 0.25

# ---- query compound ----
Per the record, `C=CC[C@@H](CC[C@@]1(C)C[C@H]1[C@H]1C[C@@H]1CC/C=C\[C@@H]1COC([C@@H]2C[C@@H]2C)=N1)OC` has GI50 of 49

====

Tested on: PC-3 cells
assay_procedure: Growth inhibition of prostate carcinoma cells (MTS)
Format: cell-based, human
test_parameters: read-out: GI50 PC3 (prostate) 48 h; 48 h
reported_property: GI50 (µM)
Write the number in µM without appending the unit.

// worked examples, GI50 included
molecule | GI50 / µM
C=CC[C@@H](CC/C(C)=C/C=C/CC/C=C\[C@@H]1CSC(C(C)(C)C)=N1)OC | 0.13
C=CCC(CCC(C)=CC=CCCC=CC1COC(C=Cc2ccccc2)=N1)OC (centres unmarked) | 30
C=CC[C@@H](CC/C(C)=C/C=C/CC/C=C\[C@@H]1COC(C(C)(C)C)=N1)OC | 6.2

Now let's try a different one.
GI50 reading for `C=CC[C@@H](CC/C(C)=C/C=C/CC/C=C\c1csc(C(C)(C)C)n1)OC` : 0.24

====

Test system: isolated bovine brain tubulin
assay_procedure: Inhibition of GTP/glutamate-induced tubulin polymerization (turbidimetric, 30° C.)
Type: biochemical
test_parameters: 30° C. turbidimetric assay; N=2 over 4 concentrations; read-out: IC50, inhibition of GTP/glutamate-induced assembly of tubulin
reported_property: IC50 (nM)
Quick note: give the figure in nM, leave out the unit.

compound | IC50 [nM]
COc1cc(/C=N\OC/C=C/C=C(\C)CCC(O)c2cccs2)cc(OC)c1OC (centres unmarked) [JRoxime1] | 170

Let us move to another entry and its IC50.
Measured IC50 of C=CC[C@@H](CC/C(C)=C/C=C/CC/C=C\[C@@H]1CSC([C@@H]2C[C@@H]2C)=N1)OC [curacin A] : 520

====

Tested on: tubulin (colchicine site)
assay_procedure: Inhibition of [3H]colchicine binding to tubulin
Design: species or system bovine
test_parameters: 50 μM compound, 37° C.
Protocol: Assays to determine whether 15mix-17mix inhibited binding of [^3H]colchicine to tubulin at both 30° C. and 37° C. were performed. This was accomplished using methods described previously. […] The solutions were filtered through two stacks of DEAE-cellulose filters and the radioactivity in the filtrate was determined by scintillation spectrometry. […]
reported_property: % CBI 50 μM, 37° C.
For clarity, give the value followed by its unit.

Previously resolved entries follow.
compound | % CBI 50 μM, 37° C.
C=CC[C@@H](CC/C(C)=C/C=C/CC/C=C\c1coc(C(C)(C)C)n1)OC [JRC2] | −52 ± 14%
COc1cc(/C=N\OC/C=C/C=C(\C)CCC(O)c2cccs2)cc(OC)c1OC (stereo not shown) [JRoxime1] | 37 ± 8%
C=CC[C@@H](CC/C(C)=C/C=C/CC/C=C\[C@@H]1CSC(C(C)(C)C)=N1)OC [JRC3] | 13 ± 12%

Entry C=CC[C@@H](CC/C(C)=C/C=C/CC/C=C\[C@@H]1CSC([C@@H]2C[C@@H]2C)=N1)OC [curacin A] ; % CBI 50 μM, 37° C. = 97 ± 0%

====

System: PC-3 cells
assay_procedure: Growth inhibition of prostate carcinoma cells (MTS)
Format: cell-based, human
test_parameters: 96 h; read-out: GI50 PC3 (prostate) 96 h
reported_property: GI50 (µM)
All answers are understood in µM, so give the number only.

molecule | measured_on | GI50 / µM
C=CC[C@@H](CC/C(C)=C/C=C/CC/C=C\c1csc(C(C)(C)C)n1)OC | PC-3 cells | 0.45

Next compound, GI50 to be filled in.
The recorded GI50 with PC-3 cells for `C=CC[C@@H](CC[C@@]1(C)C[C@H]1[C@H]1C[C@@H]1CC/C=C\[C@@H]1COC([C@@H]2C[C@@H]2C)=N1)OC` was 24

====

Each entry below lists one item and its recorded GI50 value.
Test system: PC-3 cells
assay_procedure: Growth inhibition of prostate carcinoma cells (MTS)
Type: cell-based, human
test_parameters: 96 h; read-out: GI50 PC3 (prostate) 96 h
Numbers only here, please. The scale is µM.

Field: example entries. Status: answers known.
compound | measured_on | GI50 [µM]
COc1cc(/C=N\OC/C=C/C=C(\C)CCC(O)c2cccs2)cc(OC)c1OC (centres unmarked) [JRoxime1] | PC-3 cells | 0.53
C=CC[C@@H](CC/C(C)=C/C=C/CC/C=C\[C@@H]1COC(C(C)(C)C)=N1)OC [JRC1] | PC-3 cells | 8.8
C=CC[C@@H](CC/C(C)=C/C=C/CC/C=C\[C@@H]1CSC(C(C)(C)C)=N1)OC [JRC3] | PC-3 cells | 0.061

Record C=CCC(CCC(C)=CC=CCCC=CC1COC(C=Cc2ccccc2)=N1)OC (centres unmarked) [JRC5] , field GI50: 28

====

Catalogue of molecules with associated log10(GI50)
System: MDA-MB231 cells
assay_procedure: Growth inhibition of breast carcinoma cells (MTS)
Format: cell-based, human
test_parameters: Homo sapiens, MDA-MB-231, 48 h, read-out: GI50 MDA-MB231 (48 h)
// do not treat as linear: log10 of GI50, unit nM

molecule | measured_on | log10(GI50)
COc1cc(/C=C\CC/C=C/C=C(\C)CCC(O)c2cc3ccccc3o2)cc(OC)c1OC (stereo not drawn) [Compound 17e] | MDA-MB231 cells | 2.08

Summary for this molecule, COc1cc(/C=C\CC/C=C/C=C(\C)CCC(O)c2cc3ccccc3s2)cc(OC)c1OC (stereo not drawn) [Compound 17b] : log10(GI50) is 2.36

Record summary for COc1ccccc1C(O)CCC(C)=CC=CCCC=Cc1cc(OC)c(OC)c(OC)c1 (stereo not drawn) [Compound 17d] : reported log10(GI50) = 2.53

Kindly note the recorded log10(GI50) for COc1ccc(OC)c(C(O)CCC(C)=CC=CCCC=Cc2cc(OC)c(OC)c(OC)c2)c1 (stereo not drawn) [Compound 17f] , which is 3.99

log10(GI50) in this record for COc1cc(/C=C\CC/C=C/C=C(\C)CCC(O)c2cccs2)cc(OC)c1OC (stereo not drawn) [Compound 17c] : 2.45

The measured log10(GI50) associated with COc1cc(C=CCCC=CC=C(C)CCC(O)c2ccco2)cc(OC)c1OC (stereo not drawn) [Compound 17a] reads 2.84

====

Test system: tubulin (colchicine site)
assay_procedure: Inhibition of [3H]colchicine binding to tubulin
Set-up: species or system bovine
test_parameters: 50 μM compound, 37° C.
Reported % CBI 50 μM, 37° C. values are given for each entry in this list.
Provide the reading as a plain figure in %.

compound | measured_on | reported_property | u | experimental_value
C=CC[C@@H](CC[C@@]1(C)C[C@H]1[C@H]1C[C@@H]1CC/C=C\[C@@H]1COC([C@@H]2C[C@@H]2C)=N1)OC | tubulin (colchicine site) | % CBI 50 μM, 37° C. | % | −74
C=CC[C@@H](CC/C(C)=C/C=C/CC/C=C\c1csc(C(C)(C)C)n1)OC | tubulin (colchicine site) | % CBI 50 μM, 37° C. | % | 5
C=CCC(CCC(C)=CC=CCCC=CC1COC(C=Cc2ccccc2)=N1)OC (stereo not drawn) | tubulin (colchicine site) | % CBI 50 μM, 37° C. | % | −89
COc1cc(C=NOCC2CC2CCC(C)c2cccs2)cc(OC)c1OC (stereo not drawn) | tubulin (colchicine site) | % CBI 50 μM, 37° C. | % | −30
C=CC[C@@H](CC/C(C)=C/C=C/CC/C=C\[C@@H]1COC(C(C)(C)C)=N1)OC | tubulin (colchicine site) | % CBI 50 μM, 37° C. | % | 87

# evaluate next
# % CBI 50 μM, 37° C. of `C=CC[C@@H](CC[C@@]1(C)C[C@H]1[C@H]1C[C@@H]1CC/C=C\[C@@H]1CSC([C@@H]2C[C@@H]2C)=N1)OC` = −62

====

measured_on: tubulin (colchicine site)
assay_procedure: Inhibition of [3H]colchicine binding to tubulin
Parameters: species or system bovine
test_parameters: incubation at 37° C. for 10 minutes; 5 μM [3H]colchicine, 1 μM tubulin; read-out: 50% Colchicine Binding Inhibitory Concentration (CBI), 37° C.
reported_property: IC50 (µM)
Answer in µM, number only, no unit symbol.

Here is how some molecules turned out for IC50.
molecule | measured_on | IC50 [µM]
COc1cc(/C=C\CC/C=C/C=C(\C)CCC(O)c2cc3ccccc3s2)cc(OC)c1OC (stereo not shown) [Compound 17b] | tubulin (colchicine site) | 19
COc1cc(/C=C\CC/C=C/C=C(\C)CCC(O)c2cccs2)cc(OC)c1OC (stereo not shown) [Compound 17c] | tubulin (colchicine site) | 9
COc1ccccc1C(O)CCC(C)=CC=CCCC=Cc1cc(OC)c(OC)c(OC)c1 (stereo not shown) [Compound 17d] | tubulin (colchicine site) | 9

# IC50 of COc1cc(C=CCCC=CC=C(C)CCC(O)c2ccco2)cc(OC)c1OC (stereo not shown) [Compound 17a] = 9

Memo: `C=CC[C@@H](CC/C(C)=C/C=C/CC/C=C\[C@@H]1CSC([C@@H]2C[C@@H]2C)=N1)OC` , reported IC50: 0.6

So, COc1cc(/C=C\CC/C=C/C=C(\C)CCC(O)c2cc3ccccc3o2)cc(OC)c1OC (stereo not shown) [Compound 17e] ? Its IC50 was 28
